Reference source for all entries: patent US20250027068

Assay System: pooled human IgG (human IgG1, 2, 3 and 4)
Value Type: Enzyme Activity Endpoint Assay (purified): Fab′2 (ng/µL)

- PRT-624 (protein) MQITSVWTKGVTPLTPEQFRYNNEDVIHAPYLAHQGWYDITKAFDGKDNLLCGAATAGNMLHWWFDQNKTEIEAYLSKHPEKQKIIFNNQELFDLKAAIDTKDSQTNSQLFNYFRDKAFPNLSARQLGVMPDLVLDMFINGYYLNVFKTQSTDVNRDYDDKDKRGGIFDDVFGKGDQTTLLTARHDLKNKGLNDISTIIKQELTEGRALALSHTYANVSISHVINLWGADFNAEGNLEAIYVTDSDANASIGMKKYFVGINAHGHVAISAKKIEGENIGAQVLGLFTLSSGKDIWQKLSLEHHHHHH: 89
